Ref: patent US20230143003A1

system_name: T1, hROR2-Fc (human ROR2 Fc fusion protein) (human, UniProt Q01974 34-403, limits assumed)
T1 construct: Given both as hROR2-Fc and as Fc-hROR2, so the order of the two parts is not certain; also called Fc-hROR2; not shown: human Fc part (captured by a mouse anti-human IgG CH2 / Fcγ mAb)
assay_method_text: SPR (Biacore X100), Fc-hROR2 captured on CM5 chip via mouse anti-human Fcγ mAb, Fab as analyte, 1:1 binding model
Field: koff. Provide a value for each of the binders that follow.
Reply numerically in s⁻¹, unit not repeated.

Quick one: koff of X3.21 (Fab, V domains shown, one of the top 12 chimeric rabbit/human anti-human ROR2 Fabs selected from the focused HCDR3 mutagenesis library) VH: QSVKESEGGLFKPTDTLTLTCTVSGFSLSSYGVTWVRQAPGSGLEWIGYINTAGNTYYASWAKSRSTITRNTNENTVTLKMTSLTAADTATYFCARDGLTSLNIWGPGTLVTVSS VL: DPMLTQTPSSTSTAVGDTVTIKCQASQSISSDLSWYQQKPGQRPKLLIYQASTLASGVPSRFKGSGYGTEYTLTISGVQREDAAIYYCLGGYADASYRTAFGGGTKLEIK ?
9.2e-05

Look at this binder and give its reported koff. X2.12 (Fab, V domains shown, one of the top 12 chimeric rabbit/human anti-human ROR2 Fabs selected from the focused HCDR3 mutagenesis library) VH: QSVKESEGGLFKPTDTLTLTCTVSGFSLSSYGVTWVRQAPGSGLEWIGYINTAGNTYYASWAKSRSTITRNTNENTVTLKMTSLTAADTATYFCARDTMSLNIWGPGTLVTVSS VL: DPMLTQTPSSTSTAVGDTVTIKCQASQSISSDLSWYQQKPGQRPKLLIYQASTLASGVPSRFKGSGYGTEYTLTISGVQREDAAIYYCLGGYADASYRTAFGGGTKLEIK
4e-05

Report koff for X2.7 (Fab, V domains shown, one of the top 12 chimeric rabbit/human anti-human ROR2 Fabs selected from the focused HCDR3 mutagenesis library) VH: QSVKESEGGLFKPTDTLTLTCTVSGFSLSSYGVTWVRQAPGSGLEWIGYINTAGNTYYASWAKSRSTITRNTNENTVTLKMTSLTAADTATYFCARDSMSLNIWGPGTLVTVSS VL: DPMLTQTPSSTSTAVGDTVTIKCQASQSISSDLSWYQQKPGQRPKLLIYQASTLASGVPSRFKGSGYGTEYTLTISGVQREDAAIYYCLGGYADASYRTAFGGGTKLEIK please.
0.0001
